Consider the following compounds and their measured Alkylation percentage (Cys12 of MgrA) readings.
Target: MgrA (Staphylococcus aureus)
Sequence (Q99VT5 whole entry): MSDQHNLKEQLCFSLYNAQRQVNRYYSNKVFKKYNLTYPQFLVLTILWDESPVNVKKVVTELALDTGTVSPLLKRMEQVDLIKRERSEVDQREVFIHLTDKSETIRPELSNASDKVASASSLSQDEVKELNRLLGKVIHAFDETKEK
Assay: Alkylation of Cys12 in MgrA, DTNB assay for free thiol content
Assay type: biochemical, S. aureus
Parameters: His6 (N, cleaved yes); made in house; host or cells: E. coli BL21(DE3)
Settings: 8 equivalents alkylator, 0.05 mM MgrA in water, pH 7.4, 1 h, r.t.
Enter your answer as a number in %; do not include the unit.

>  <compound>
c1ccc(OCC2CO2)cc1 (centres unmarked)

>  <target or test system>
MgrA (Staphylococcus aureus)

>  <Alkylation percentage (Cys12 of MgrA), %>
48

$$$$

API: the following record is the query input.
input: Reported Alkylation percentage (Cys12 of MgrA) for c1ccc(CC2CO2)cc1 (centres unmarked) : what is it?
output: 59

Recorded values, source patent US20070248581A1.
